Data credit: the supplement of paper PMC5998384

# Test system: HeLa Kyoto
# measurement.description: solubility change mitosis vs G1/S (difference of NP-40 vs SDS log2 ratios) (log2 ratio difference); higher = more soluble in mitosis
Catalogue of solubility change mitosis (log2) readings, one per entry.

| sequence.string | solubility change mitosis (log2) |
| --- | --- |
| MCGDCVEKEYPNRGNTCLENGSFLLNFTGCAVCSKRDFMLITNKSLKEEDGEEIVTYDHLCKNCHHVIARHEYTFSIMDEFQEYTMLCLLCGKAEDTISILPDDPRQMTLLF [CHURC1] | -0.361 |
| MRRSRSSAAAKLRGQKRSGASGASAAPAASAAAALAPSATRTRRSASQAGSKSQAVEKPPSEKPRLRRSSPRAQEEGPGEPPPPELALLPPPPPPPPTPATPTSSASNLDLGEQRERWETFQKRQKLTSEGAAKLLLDTFEYQGLVKHTGGCHCGAVRFEVWASADLHIFDCNCSICKKKQNRHFIVPASRFKLLKGAEHITTYTFNTHKAQHTFCKRCGVQSFYTPRSNPGGFGIAPHCLDEGTVRSMVTEEFNGSDWEKAMKEHKTIKNMSKE [CENPV] | 0.822 |
| MARTLEPLAKKIFKGVLVAELVGVFGAYFLFSKMHTSQDFRQTMSKKYPFILEVYYKSTEKSGMYGIRELDQKTWLNSKN [CEBPZOS] | -0.012 |
| MPKAKGKTRRQKFGYSVNRKRLNRNARRKAAPRIECSHIRHAWDHAKSVRQNLAEMGLAVDPNRAVPLRKRKVKAMEVDIEERPKELVRKPYVLNDLEAEASLPEKKGNTLSRDLIDYVRYMVENHGEDYKAMARDEKNYYQDTPKQIRSKINVYKRFYPAEWQDFLDSLQKRKMEVE [NOP16] | 1.22 |

---

# System: HeLa Kyoto
# measurement.description: thermal stability score vs G1/S (z-score of summed log2 fold changes over temperatures); higher = more thermally stable than in G1/S
# condition.details: cell cycle stage: mitosis
Assign Y to entries whose thermal stability score meets or exceeds -1; assign N to the rest.

| sequence.string | category.label |
| --- | --- |
| MELGSCLEGGREAAEEEGEPEVKKRRLLCVEFASVASCDAAVAQCFLAENDWEMERALNSYFEPPVEESALERRPETISEPKTYVDLTNEETTDSTTSKISPSEDTQQENGSMFSLITWNIDGLDLNNLSERARGVCSYLALYSPDVIFLQEVIPPYYSYLKKRSSNYEIITGHEEGYFTAIMLKKSRVKLKSQEIIPFPSTKMMRNLLCVHVNVSGNELCLMTSHLESTRGHAAERMNQLKMVLKKMQEAPESATVIFAGDTNLRDREVTRCGGLPNNIVDVWEFLGKPKHCQYTWDTQMNSNLGITAACKLRFDRIFFRAAAEEGHIIPRSLDLLGLEKLDCGRFPSDHWGLLCNLDIIL [TDP2] | Y |
| MAVDITLLFRASVKTVKTRNKALGVAVGGGVDGSRDELFRRSPRPKGDFSSRAREVISHIGKLRDFLLEHRKDYINAYSHTMSEYGRMTDTERDQIDQDAQIFMRTCSEAIQQLRTEAHKEIHSQQVKEHRTAVLDFIEDYLKRVCKLYSEQRAIRVKRVVDKKRLSKLEPEPNTKTRESTSSEKVSQSPSKDSEENPATEERPEKILAETQPELGTWGDGKGEDELSPEEIQMFEQENQRLIGEMNSLFDEVRQIEGRVVEISRLQEIFTEKVLQQEAEIDSIHQLVVGATENIKEGNEDIREAIKNNAGFRVWILFFLVMCSFSLLFLDWYDS [STX18] | Y |
| MALRELKVCLLGDTGVGKSSIVWRFVEDSFDPNINPTIGASFMTKTVQYQNELHKFLIWDTAGQERFRALAPMYYRGSAAAIIVYDITKEETFSTLKNWVKELRQHGPPNIVVAIAGNKCDLIDVREVMERDAKDYADSIHAIFVETSAKNAININELFIEISRRIPSTDANLPSGGKGFKLRRQPSEPKRSCC [RAB22A] | Y |
| MAATRSPTRARERERSGAPAAGSDQVHSWMLATSQALDTVWRMAKGFVMLAVSFLVAAICYFRRLHLYSGHKLKWWIGYLQRKFKRNLSVEAEVDLLSYCAREWKGETPRNKLMRKAYEELFWRHHIKCVRQVRRDNYDALRSVLFQIFSQGISFPSWMKEKDIVKLPEKLLFSQGCNWIQQYSFGPEKYTGSNVFGKLRKYVELLKTQWTEFNGIRDYHKRGSMCNTLFSDAILEYKLYEALKFIMLYQVTEVYEQMKTKKVIPSLFRLLFSRETSSDPLSFMMNHLNSVGDTCGLEQIDMFILGYSLEVKIKVFRLFKFNSRDFEVCYPEEPLRDWPEISLLTENDRHYHIPVF [FAM105A] | N |
| MEGSLEREAPAGALAAVLKHSSTLPPESTQVRGYDFNRGVNYRALLEAFGTTGFQATNFGRAVQQVNAMIEKKLEPLSQDEDQHADLTQSRRPLTSCTIFLGYTSNLISSGIRETIRYLVQHNMVDVLVTTAGGVEEDLIKCLAPTYLGEFSLRGKELRENGINRIGNLLVPNENYCKFEDWLMPILDQMVMEQNTEGVKWTPSKMIARLGKEINNPESVYYWAQKNHIPVFSPALTDGSLGDMIFFHSYKNPGLVLDIVEDLRLINTQAIFAKCTGMIILGGGVVKHHIANANLMRNGADYAVYINTAQEFDGSDSGARPDEAVSWGKIRVDAQPVKVYADASLVFPLLVAETFAQKMDAFMHEKNED [DHPS] | N |

---

# Tested on: HeLa Kyoto
# measurement.description: melting temperature (median over replicates), in situ; higher = more thermally stable
# condition.details: cell cycle stage: G1/S

| sequence.string | melting temperature [°C] |
| --- | --- |
| MAAAAVSGALGRAGWRLLQLRCLPVARCRQALVPRAFHASAVGLRSSDEQKQQPPNSFSQQHSETQGAEKPDPESSHSPPRYTDQGGEEEEDYESEEQLQHRILTAALEFVPAHGWTAEAIAEGAQSLGLSSAAASMFGKDGSELILHFVTQCNTRLTRVLEEEQKLVQLGQAEKRKTDQFLRDAVETRLRMLIPYIEHWPRALSILMLPHNIPSSLSLLTSMVDDMWHYAGDQSTDFNWYTRRAMLAAIYNTTELVMMQDSSPDFEDTWRFLENRVNDAMNMGHTAKQVKSTGEALVQGLMGAAVTLKNLTGLNQRR [COQ9] | 51.5 |
| MTKIKADPDGPEAQAEACSGERTYQELLVNQNPIAQPLASRRLTRKLYKCIKKAVKQKQIRRGVKEVQKFVNKGEKGIMVLAGDTLPIEVYCHLPVMCEDRNLPYVYIPSKTDLGAAAGSKRPTCVIMVKPHEEYQEAYDECLEEVQSLPLPL [NHP2] | 55.3 |
| MKGLYFQQSSTDEEITFVFQEKEDLPVTEDNFVKLQVKACALSQINTKLLAEMKMKKDLFPVGREIAGIVLDVGSKVSFFQPDDEVVGILPLDSEDPGLCEVVRVHEHYLVHKPEKVTWTEAAGSIRDGVRAYTALHYLSHLSPGKSVLIMDGASAFGTIAIQLAHHRGAKVISTACSLEDKQCLERFRPPIARVIDVSNGKVHVAESCLEETGGLGVDIVLDAGVRLYSKDDEPAVKLQLLPHKHDIITLLGVGGHWVTTEENLQLDPPDSHCLFLKGATLAFLNDEVWNLSNVQQGKYLCILKDVMEKLSTGVFRPQLDEPIPLYEAKVSMEAVQKNQGRKKQVVQF [CRYZL1] | 57 |
| MATKIDKEACRAAYNLVRDDGSAVIWVTFKYDGSTIVPGEQGAEYQHFIQQCTDDVRLFAFVRFTTGDAMSKRSKFALITWIGENVSGLQRAKTGTDKTLVKEVVQNFAKEFVISDRKELEEDFIKSELKKAGGANYDAQTE [COTL1] | 52.4 |
| MVQAWYMDDAPGDPRQPHRPDPGRPVGLEQLRRLGVLYWKLDADKYENDPELEKIRRERNYSWMDIITICKDKLPNYEEKIKMFYEEHLHLDDEIRYILDGSGYFDVRDKEDQWIRIFMEKGDMVTLPAGIYHRFTVDEKNYTKAMRLFVGEPVWTAYNRPADHFEARGQYVKFLAQTA [ADI1] | 51.1 |
| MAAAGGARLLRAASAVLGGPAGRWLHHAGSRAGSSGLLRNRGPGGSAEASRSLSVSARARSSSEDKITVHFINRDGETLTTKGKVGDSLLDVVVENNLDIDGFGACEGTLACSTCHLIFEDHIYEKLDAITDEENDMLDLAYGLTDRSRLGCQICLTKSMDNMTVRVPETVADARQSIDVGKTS [FDX1] | 53 |

---

# Test system: HeLa Kyoto
# measurement.description: solubility change mitosis vs G1/S (difference of NP-40 vs SDS log2 ratios) (log2 ratio difference); higher = more soluble in mitosis

| sequence.string | system.name | solubility change mitosis (log2) |
| --- | --- | --- |
| MVGYDPKPDGRNNTKFQVAVAGSVSGLVTRALISPFDVIKIRFQLQHERLSRSDPSAKYHGILQASRQILQEEGPTAFWKGHVPAQILSIGYGAVQFLSFEMLTELVHRGSVYDAREFSVHFVCGGLAACMATLTVHPVDVLRTRFAAQGEPKVYNTLRHAVGTMYRSEGPQVFYKGLAPTLIAIFPYAGLQFSCYSSLKHLYKWAIPAEGKKNENLQNLLCGSGAGVISKTLTYPLDLFKKRLQVGGFEHARAAFGQVRRYKGLMDCAKQVLQKEGALGFFKGLSPSLLKAALSTGFMFFSYEFFCNVFHCMNRTASQR [SLC25A19] | HeLa Kyoto | -0.0971 |
